test system: B16F10-Cas9 cells co-cultured with Pmel-1 T cells; assay: Genome-scale CRISPR-Cas9 screen, selection with Pmel-1 T cells; assay type: cell-based, mouse; conditions: Table 3; B16F10-Cas9 cells pre-treated with IFNγ, co-cultured with Pmel-1 T cells 1:1 for three days; negative = depleted, positive = enriched
# Pmel+ (sgRNA Log(2) fold change, Pmel-1 selection versus control T cells) per record follows
Number only, please.

// solved cases for Pmel+ (sgRNA Log(2) fold change, Pmel-1 selection versus control T cells) follow
Monomer sequence: CTGCACCAATGTTGGTCACG (chemistry not fully specified)
Experimental system: B16F10-Cas9 cells co-cultured with Pmel-1 T cells
Assay result: 2.82

Monomer sequence: ACGCAATGAAAAGGTTTAGG (chemistry not fully specified)
Experimental system: B16F10-Cas9 cells co-cultured with Pmel-1 T cells
Assay result: 2.19

Monomer sequence: GGAAACGTGGCATGTCTCGG (chemistry not fully specified)
Experimental system: B16F10-Cas9 cells co-cultured with Pmel-1 T cells
Assay result: 2.66

Ask: Request the reported Pmel+ (sgRNA Log(2) fold change, Pmel-1 selection versus control T cells) associated with TCACTGCGTACGCGTCACTG (chemistry not fully specified)
Result: 0.81

Ask: # lookup: Pmel+ (sgRNA Log(2) fold change, Pmel-1 selection versus control T cells) of GGTTCCTTGCGGGACTCCGT (chemistry not fully specified)
Result: -2.53
